IC50, TF-1 cell proliferation values, listed per item
Target: T1, human GM-CSFRα, full length on cells (human, UniProt P15509 23-400)
T1 sequence: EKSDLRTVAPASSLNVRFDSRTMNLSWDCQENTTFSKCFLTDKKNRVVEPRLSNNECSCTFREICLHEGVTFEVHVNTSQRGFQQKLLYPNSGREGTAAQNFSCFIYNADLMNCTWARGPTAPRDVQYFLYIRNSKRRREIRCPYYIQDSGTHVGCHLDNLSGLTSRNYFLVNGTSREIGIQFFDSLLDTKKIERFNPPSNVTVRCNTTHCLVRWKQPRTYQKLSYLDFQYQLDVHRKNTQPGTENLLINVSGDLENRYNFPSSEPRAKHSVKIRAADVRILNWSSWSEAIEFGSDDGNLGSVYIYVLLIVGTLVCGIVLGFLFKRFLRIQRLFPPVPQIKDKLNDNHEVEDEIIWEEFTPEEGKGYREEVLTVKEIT
Test: cell-based or functional assay

{"columns": ["binder", "IC50, TF-1 cell proliferation"],
 "data": [
  ["E35-scFv LA51W (scFv, V domains shown) VH: QMQLVQSGAEVKKPGASVKVSCKVSGYTLTELSIHWVRQAPGKGLEWMGGFDPEDGETIYAQKFQGRVTMTGDTSTDTAYLELSSLRSEDTALYYCATGRYTSLATTYGFDYWGQGTLVTVSS VL: EIVMTQSPATLSLSPGERATLSCRASQSVSSYLAWYQQKPGQAPRLLIYGWSSRATGIPDRFSGSGSGTDFTLTISRLEPEDFAVYYCQQYDNWPYTFGQGTKLEIK", "1.59 µg/mL"],
  ["E35-scFv LG50P (scFv, V domains shown) VH: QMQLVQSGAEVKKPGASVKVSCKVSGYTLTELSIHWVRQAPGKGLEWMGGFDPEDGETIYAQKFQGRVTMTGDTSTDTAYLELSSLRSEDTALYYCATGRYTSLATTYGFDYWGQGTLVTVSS VL: EIVMTQSPATLSLSPGERATLSCRASQSVSSYLAWYQQKPGQAPRLLIYPASSRATGIPDRFSGSGSGTDFTLTISRLEPEDFAVYYCQQYDNWPYTFGQGTKLEIK", "1.86 µg/mL"],
  ["E35-scFv LG50D (scFv, V domains shown) VH: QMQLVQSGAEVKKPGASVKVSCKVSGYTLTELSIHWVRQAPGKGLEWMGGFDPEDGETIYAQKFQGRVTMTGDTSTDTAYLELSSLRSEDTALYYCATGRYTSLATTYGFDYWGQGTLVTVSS VL: EIVMTQSPATLSLSPGERATLSCRASQSVSSYLAWYQQKPGQAPRLLIYDASSRATGIPDRFSGSGSGTDFTLTISRLEPEDFAVYYCQQYDNWPYTFGQGTKLEIK", "0.88 µg/mL"],
  ["E35-scFv LS26R (scFv, V domains shown) VH: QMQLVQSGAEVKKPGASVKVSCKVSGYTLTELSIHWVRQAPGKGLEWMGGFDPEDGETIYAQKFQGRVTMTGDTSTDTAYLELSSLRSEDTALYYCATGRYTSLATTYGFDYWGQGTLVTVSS VL: EIVMTQSPATLSLSPGERATLSCRARQSVSSYLAWYQQKPGQAPRLLIYGASSRATGIPDRFSGSGSGTDFTLTISRLEPEDFAVYYCQQYDNWPYTFGQGTKLEIK", "0.072 µg/mL"]
]}

# context switch: different binder, same IC50, TF-1 cell proliferation
[ask] // fetch IC50, TF-1 cell proliferation given entry E35-scFv LS26N (scFv, V domains shown) VH: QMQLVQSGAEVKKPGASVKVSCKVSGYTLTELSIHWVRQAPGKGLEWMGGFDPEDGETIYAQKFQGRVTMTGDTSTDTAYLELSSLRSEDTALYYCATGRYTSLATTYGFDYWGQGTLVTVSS VL: EIVMTQSPATLSLSPGERATLSCRANQSVSSYLAWYQQKPGQAPRLLIYGASSRATGIPDRFSGSGSGTDFTLTISRLEPEDFAVYYCQQYDNWPYTFGQGTKLEIK
[reply] 0.054 µg/mL
